Entries annotated with measured DC50
# test-target: HMG-CoA reductase (Homo sapiens, UniProt P04035)
# Construct: endogenous in cells; host or cells: HepG2 (Korea Cell Line Bank)
# Sequence (P04035 whole entry): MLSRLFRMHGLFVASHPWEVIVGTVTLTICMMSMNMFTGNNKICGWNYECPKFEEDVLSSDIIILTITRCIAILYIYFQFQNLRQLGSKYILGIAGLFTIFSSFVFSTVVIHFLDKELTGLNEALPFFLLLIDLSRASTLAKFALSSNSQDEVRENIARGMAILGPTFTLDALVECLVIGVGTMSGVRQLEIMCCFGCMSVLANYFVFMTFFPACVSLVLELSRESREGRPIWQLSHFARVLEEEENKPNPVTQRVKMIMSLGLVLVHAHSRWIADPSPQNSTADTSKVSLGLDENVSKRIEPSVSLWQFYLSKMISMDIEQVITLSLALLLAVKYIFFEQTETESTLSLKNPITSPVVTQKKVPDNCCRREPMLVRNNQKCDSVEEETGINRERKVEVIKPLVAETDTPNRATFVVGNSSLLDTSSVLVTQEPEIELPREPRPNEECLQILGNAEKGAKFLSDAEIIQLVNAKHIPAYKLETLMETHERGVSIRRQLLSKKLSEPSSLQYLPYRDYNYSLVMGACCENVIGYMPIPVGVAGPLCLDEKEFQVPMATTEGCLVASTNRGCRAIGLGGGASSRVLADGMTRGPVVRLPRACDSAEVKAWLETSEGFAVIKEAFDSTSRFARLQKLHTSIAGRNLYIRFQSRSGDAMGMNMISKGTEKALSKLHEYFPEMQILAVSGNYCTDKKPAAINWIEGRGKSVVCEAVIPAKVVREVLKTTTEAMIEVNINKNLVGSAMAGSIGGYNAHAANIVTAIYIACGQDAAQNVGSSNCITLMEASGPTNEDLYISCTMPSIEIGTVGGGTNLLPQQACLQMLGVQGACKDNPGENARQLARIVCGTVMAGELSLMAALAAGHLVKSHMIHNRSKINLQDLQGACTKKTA
# test-description: HMG-CoA reductase (HMGCR) degradation in HepG2 cells by western blotting
# Assay type: cell-based
# condition-description: treated for 18 hours, ratio of HMG-CoA reductase to GAPDH, read-out: DC50

compound	DC50
C[C@H]1C=C2C=C[C@H](C)[C@H](CC[C@@H]3C[C@@H](O)CC(=O)O3)[C@H]2[C@@H](OC(=O)C(C)(C)CCC(=O)NCCOCCOCCOCCOCCNc2cccc3c2C(=O)N(C2CCC(=O)NC2=O)C3=O)C1 (stereo partly shown)	< 50 nM
C[C@H]1C=C2C=C[C@H](C)[C@H](CC[C@@H]3C[C@@H](O[Si](C)(C)C(C)(C)C)CC(=O)O3)[C@H]2[C@@H](OC(=O)NCCCCN2CCC(Nc3cccc4c3C(=O)N(C3CCC(=O)NC3=O)C4=O)CC2)C1 (stereo partly shown)	< 50 nM
C[C@H]1C=C2C=C[C@H](C)[C@H](CC[C@@H]3C[C@@H](O[Si](C)(C)C(C)(C)C)CC(=O)O3)[C@H]2[C@@H](OC(=O)NCCCCCCCCNC(=O)COc2cccc3c2C(=O)N(C2CCC(=O)NC2=O)C3=O)C1 (stereo partly shown)	50 to 500 nM
C[C@H]1C=C2C=C[C@H](C)[C@H](CC[C@@H]3C[C@@H](O)CC(=O)O3)[C@H]2[C@@H](OC(=O)NCCCCCCCNc2cccc3c2C(=O)N(C2CCC(=O)NC2=O)C3=O)C1 (stereo partly shown)	50 to 500 nM
C[C@H]1C=C2C=C[C@H](C)[C@H](CC[C@@H]3C[C@@H](O[Si](C)(C)C(C)(C)C)CC(=O)O3)[C@H]2[C@@H](OC(=O)NCCOCCOCCOCCNc2ccccc2)C1	> 500 nM
C[C@H]1C=C2C=C[C@H](C)[C@H](CC[C@@H]3C[C@@H](O[Si](C)(C)C(C)(C)C)CC(=O)O3)[C@H]2[C@@H](OC(=O)NCCCCCCN2CCC(Nc3cccc4c3C(=O)N(C3CCC(=O)NC3=O)C4=O)CC2)C1 (stereo partly shown)	50 to 500 nM
C[C@H]1C=C2C=C[C@H](C)[C@H](CC[C@@H]3C[C@@H](O)CC(=O)O3)[C@H]2[C@@H](OC(=O)NCCCOCCCOCCCNc2cccc3c2C(=O)N(C2CCC(=O)NC2=O)C3=O)C1 (stereo partly shown)	50 to 500 nM
C[C@H]1C=C2C=C[C@H](C)[C@H](CC[C@@H]3C[C@@H](O)CC(=O)O3)[C@H]2[C@@H](OC(=O)NCCOCCOCCOCCNc2cccc3c2C(=O)N(C2CCC(=O)NC2=O)C3=O)C1 (stereo partly shown)	< 50 nM
C[C@H]1C=C2C=C[C@H](C)[C@H](CC[C@@H]3C[C@@H](O)CC(=O)O3)[C@H]2[C@@H](OC(=O)NCCCCCCCCCNc2cccc3c2C(=O)N(C2CCC(=O)NC2=O)C3=O)C1 (stereo partly shown)	50 to 500 nM
Cc1ncsc1-c1ccc(CNC(=O)[C@H]2C[C@H](O)CN2C(=O)[C@H](NC(=O)C2(F)CC2)C(C)(C)C)c(OCC(=O)N2CCC(CCCNC(=O)O[C@H]3C[C@@H](C)C=C4C=C[C@H](C)[C@H](CC[C@@H]5C[C@@H](O)CC(=O)O5)[C@H]43)CC2)c1	< 50 nM
C[C@H]1C=C2C=C[C@H](C)[C@H](CC[C@@H]3C[C@@H](O[Si](C)(C)C(C)(C)C)CC(=O)O3)[C@H]2[C@@H](OC(=O)NCCCCCCCC(=O)Nc2cccc3c2C(=O)N(C2CCC(=O)NC2=O)C3=O)C1 (stereo partly shown)	< 50 nM
C[C@H]1C=C2C=C[C@H](C)[C@H](CC[C@@H]3C[C@@H](O[Si](C)(C)C(C)(C)C)CC(=O)O3)[C@H]2[C@@H](OC(=O)NCCc2ccc(CC(=O)Nc3cccc4c3C(=O)N(C3CCC(=O)NC3=O)C4=O)cc2)C1 (stereo partly shown)	< 50 nM
Cc1ncsc1-c1ccc(CNC(=O)[C@@H]2C[C@@H](O)CN2C(=O)[C@@H](NC(=O)COCCOCCOCCNC(=O)O[C@H]2C[C@@H](C)C=C3C=C[C@H](C)[C@H](CC[C@@H]4C[C@@H](O[Si](C)(C)C(C)(C)C)CC(=O)O4)[C@H]32)C(C)(C)C)cc1	< 50 nM
C[C@H]1C=C2C=C[C@H](C)[C@H](CC[C@@H]3C[C@@H](O)CC(=O)O3)[C@H]2[C@@H](OC(=O)NCCOCCOCCOCCOCCNc2cccc3c2C(=O)N(C2CCC(=O)NC2=O)C3=O)C1 (stereo partly shown)	< 50 nM
C[C@H]1C=C2C=C[C@H](C)[C@H](CC[C@@H]3C[C@@H](O)CC(=O)O3)[C@H]2[C@@H](OC(=O)NCCOCCOCCOCCNc2ccccc2)C1	> 500 nM
CN[C@@H](C)C(=O)N[C@H](C(=O)N1CCC[C@@H]1c1nc(C(=O)c2cccc(OCCOCCOCCNC(=O)O[C@H]3C[C@@H](C)C=C4C=C[C@H](C)[C@H](CC[C@@H]5C[C@@H](O)CC(=O)O5)[C@H]43)c2)cs1)C1CCCCC1	> 500 nM
